Catalogue of inhibition at 1 µM values
tested_target: Lyn tyrosine kinase (Homo sapiens (Human), UniProt P07948)
Sequence (P07948 whole entry): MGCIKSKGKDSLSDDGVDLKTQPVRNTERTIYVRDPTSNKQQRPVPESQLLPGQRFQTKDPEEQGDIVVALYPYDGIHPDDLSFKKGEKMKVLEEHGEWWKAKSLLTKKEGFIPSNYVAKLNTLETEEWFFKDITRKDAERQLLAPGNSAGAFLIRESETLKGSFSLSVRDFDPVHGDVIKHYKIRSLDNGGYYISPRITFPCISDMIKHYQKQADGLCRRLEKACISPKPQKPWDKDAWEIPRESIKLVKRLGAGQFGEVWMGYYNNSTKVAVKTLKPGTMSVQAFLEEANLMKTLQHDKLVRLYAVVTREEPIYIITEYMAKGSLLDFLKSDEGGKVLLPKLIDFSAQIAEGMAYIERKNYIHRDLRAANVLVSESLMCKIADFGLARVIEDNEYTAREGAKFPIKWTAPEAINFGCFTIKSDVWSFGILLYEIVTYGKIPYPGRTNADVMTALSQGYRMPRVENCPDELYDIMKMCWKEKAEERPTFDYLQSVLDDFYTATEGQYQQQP
protocol_text: in vitro Lyn tyrosine kinase inhibition
Format: biochemical
condition_label: 1 uM compound; read-out: % inhibition against Lyn
quantity_measured: inhibition at 1 µM

| molecule | observed_value |
| --- | --- |
| CCNCc1ccc(-c2cc3ncnc(Nc4cccc(O)c4)c3s2)s1 | > 60% |
| CN1CCN(Cc2ccc(-c3cc4ncnc(Nc5cccc(O)c5)c4s3)cc2)CC1 | > 80% |
| CCN(CC)Cc1ccc(-c2cc3ncnc(Nc4cccc(O)c4)c3s2)cc1 | > 80% |
| COc1cccc(Nc2ncnc3cc(-c4ccc(OCCN5CCNCC5)cc4)sc23)c1 | > 60% |
| Oc1cccc(Nc2ncnc3cc(-c4ccc(CN5CCOCC5)cc4)sc23)c1 | > 80% |
| CCN(CC)C(=O)c1cccc(-c2cc3ncnc(Nc4cccc(O)c4)c3s2)c1 | > 50% |
| Oc1cccc(Nc2ccnc3cc(-c4ccc(CN5CCCC5)cc4)sc23)c1 | > 60% |
| Oc1cccc(Nc2ccnc3cc(-c4cccc(CN5CCCC5)c4)sc23)c1 | > 70% |
| Oc1cccc(Nc2ccnc3cc(-c4ccc(CN5CCCCC5)cc4)sc23)c1 | > 30% |
| Cl.OCCNCc1ccc(-c2cc3ncnc(Nc4cccc(O)c4)c3s2)cc1 | > 80% |
| CC(CO)NC(=O)c1ccc(-c2cc3ncnc(Nc4cccc(O)c4)c3s2)cc1 (centres unmarked) | > 30% |
| Oc1cccc(Nc2ncnc3cc(-c4cc(CN5CCCCC5)cs4)sc23)c1 | > 50% |
| CN1CCN(C(=O)c2cccc(-c3cc4ncnc(Nc5cccc(O)c5)c4s3)c2)CC1 | > 50% |
| CO[C@@H]1C[C@@H](CO)N(C(=O)c2cc3nccc(Nc4ccc5c(c4)cc(C)n5C(=O)NC4CC4)c3s2)C1 [Control compound 3, reference compound] | < 20% |
| CN1CCN(Cc2ccc(-c3cc4nccc(Nc5cccc(O)c5)c4s3)cc2)CC1 | > 60% |
| CC(C)CNCc1ccc(-c2cc3ncnc(Nc4cccc(O)c4)c3s2)cc1 | > 80% |
| COc1cccc(Nc2ncnc3cc(-c4ccc(OCCN5CCCC5)cc4)sc23)c1 | > 40% |

* * *

Tested on: oxazolone-induced skin inflammation of Balb/C mouse ears
protocol_text: mouse skin inflammatory model induced by oxazolone (ear thickness)
Format: in vivo
condition_label: 20 ul of 0.1% compound topical on ear, 36 hours after oxazolone
quantity_measured: Inhibition (%) of increase of ear thickness

| compound | tested_target | observed_value |
| --- | --- | --- |
| CC(C)CNCc1ccc(-c2cc3ncnc(Nc4cccc(O)c4)c3s2)cc1 | oxazolone-induced skin inflammation of Balb/C mouse ears | 29% |
| Oc1cccc(Nc2ncnc3cc(-c4ccc(CN5CCOCC5)cc4)sc23)c1 | oxazolone-induced skin inflammation of Balb/C mouse ears | 27% |
| Oc1cccc(Nc2ncnc3cc(-c4ccc(CN5CCCC5)s4)sc23)c1 | oxazolone-induced skin inflammation of Balb/C mouse ears | 53% |
| Cl.Oc1cccc(Nc2ncnc3cc(-c4cccc(CN5CCOCC5)c4)sc23)c1 | oxazolone-induced skin inflammation of Balb/C mouse ears | 67% |
| Cl.Oc1cccc(Nc2ncnc3cc(-c4ccc(CN5CCC(O)C5)cc4)sc23)c1 (stereo not drawn) | oxazolone-induced skin inflammation of Balb/C mouse ears | 48% |
| Oc1cccc(Nc2ncnc3cc(-c4ccc(CN5CCNCC5)s4)sc23)c1 | oxazolone-induced skin inflammation of Balb/C mouse ears | 49% |
| Oc1cccc(Nc2ncnc3cc(-c4ccc(CN5CCNCC5)cc4)sc23)c1 | oxazolone-induced skin inflammation of Balb/C mouse ears | 22% |
| Oc1cccc(Nc2ccnc3cc(-c4cccc(CN5CCCCC5)c4)sc23)c1 | oxazolone-induced skin inflammation of Balb/C mouse ears | 52% |
| CN1CCN(Cc2cccc(-c3cc4ncnc(Nc5cccc(O)c5)c4s3)c2)CC1.Cl | oxazolone-induced skin inflammation of Balb/C mouse ears | 55% |

* * *

Tested on: oxazolone-induced skin inflammation of Balb/C mouse ears
protocol_text: mouse skin inflammatory model induced by oxazolone (ear thickness)
Type: in vivo
condition_label: 20 ul of 0.1% compound topical on ear, 36 hours after oxazolone
Catalogue of Inhibition (%) of increase of ear thickness values
quantity_measured: Inhibition (%) of increase of ear thickness

| molecule | observed_value |
| --- | --- |
| CO[C@@H]1C[C@@H](CO)N(C(=O)c2cc3nccc(Nc4ccc5c(c4)cc(C)n5C(=O)NC4CC4)c3s2)C1 [Control compound 3, reference compound] | 22 |
| CN1CCN(Cc2ccc(-c3cc4ncnc(Nc5cccc(O)c5)c4s3)s2)CC1 [LCB 03-0092] | 47 |
| CCNCc1cccc(-c2cc3ncnc(Nc4cccc(O)c4)c3s2)c1.Cl [LCB 03-0065] | 52 |
| Cl.Oc1cccc(Nc2ncnc3cc(-c4cccc(CN5CCNCC5)c4)sc23)c1 [LCB 03-0064] | 63 |
| Oc1cccc(Nc2ccnc3cc(-c4cccc(CN5CCCC5)c4)sc23)c1 [LCB 03-0107] | 59 |
| CCNCc1cccc(-c2cc3nccc(Nc4cccc(O)c4)c3s2)c1 [LCB 03-0112] | 68 |
| Oc1cccc(Nc2ncnc3cc(-c4ccc(CNC5CC5)cc4)sc23)c1 [LCB 03-0040] | 31 |
| CCNCc1ccc(-c2cc3ncnc(Nc4cccc(O)c4)c3s2)o1 [LCB 03-0091] | 49 |
| CN1CCN(Cc2ccc(-c3cc4nccc(Nc5cccc(O)c5)c4s3)cc2)CC1 [LCB 03-0084] | 49 |

* * *

tested_target: Fgr tyrosine kinase (Homo sapiens (Human), UniProt P09769)
Sequence (P09769 whole entry): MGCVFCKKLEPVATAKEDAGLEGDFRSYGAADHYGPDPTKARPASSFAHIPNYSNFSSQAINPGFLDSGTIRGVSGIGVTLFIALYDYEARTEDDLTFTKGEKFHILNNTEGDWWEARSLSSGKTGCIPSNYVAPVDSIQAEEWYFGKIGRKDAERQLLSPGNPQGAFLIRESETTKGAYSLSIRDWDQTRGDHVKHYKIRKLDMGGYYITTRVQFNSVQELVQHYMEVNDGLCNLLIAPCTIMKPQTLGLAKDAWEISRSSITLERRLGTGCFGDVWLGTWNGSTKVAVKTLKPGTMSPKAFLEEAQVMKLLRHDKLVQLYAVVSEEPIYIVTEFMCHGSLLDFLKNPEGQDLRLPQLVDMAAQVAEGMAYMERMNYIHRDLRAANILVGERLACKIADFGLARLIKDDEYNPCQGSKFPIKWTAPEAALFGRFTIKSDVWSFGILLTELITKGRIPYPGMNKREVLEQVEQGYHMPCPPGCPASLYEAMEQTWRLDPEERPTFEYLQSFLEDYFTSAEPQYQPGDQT
protocol_text: in vitro Fgr tyrosine kinase inhibition
Type: biochemical
condition_label: 1 uM compound; read-out: % inhibition against Fgr

| compound | inhibition at 1 µM |
| --- | --- |
| N#Cc1ccc(-c2cc3ncnc(Nc4cccc(O)c4)c3s2)cc1 | > 60% |
| Oc1cccc(Nc2ncnc3cc(-c4ccc(CN5CCOCC5)cc4)sc23)c1 | > 80% |
| COc1cccc(Nc2ncnc3cc(-c4ccco4)sc23)c1 | > 40% |
| Oc1cccc(Nc2ncnc3cc(-c4ccc(CCN5CCCCC5)cc4)sc23)c1 | > 30% |
| Oc1cccc(Nc2ncnc3cc(-c4ccccc4)sc23)c1 | > 70% |
| Cl.Oc1cccc(Nc2ncnc3cc(-c4cccc(CCN5CCCC5)c4)sc23)c1 | > 80% |
| COc1cccc(Nc2ncnc3cc(-c4ccc(OCCN5CCCC5)cc4)sc23)c1 | > 60% |
| Oc1cccc(Nc2ncnc3cc(-c4ccc(CN5CCNCC5)cc4)sc23)c1 | > 60% |
| COc1cccc(Nc2ncnc3cc(-c4cccs4)sc23)c1 | > 40% |
| COc1cccc(Nc2ncnc3cc(-c4ccc(OCCN5CCNCC5)cc4)sc23)c1 | > 60% |
| CCN(CC)Cc1ccc(-c2cc3ncnc(Nc4cccc(O)c4)c3s2)cc1 | > 70% |
| COC[C@@H]1CCCN1C(=O)c1cc2nccc(Nc3ccc4c(c3)cc(C)n4C(=O)NC3CC3)c2s1 [Control compound 2, reference compound] | < 20% |
| Cl.Oc1cccc(Nc2ncnc3cc(-c4cccc(CN5CCOCC5)c4)sc23)c1 | > 80% |
| CCNCc1ccc(-c2cc3ncnc(Nc4cccc(O)c4)c3s2)s1 | > 60% |
| CCNCc1ccc(-c2cc3ncnc(Nc4cccc(O)c4)c3s2)o1 | > 70% |
| Oc1cccc(Nc2ncnc3cc(-c4ccc(CN5CCNCC5)o4)sc23)c1 | > 70% |
| Oc1cccc(Nc2ncnc3cc(-c4cc(CN5CCCCC5)co4)sc23)c1 | > 50% |
| COC(=O)C1CCCN1Cc1ccc(-c2cc3ncnc(Nc4cccc(O)c4)c3s2)cc1 (stereo not drawn) | > 50% |

* * *

Catalogue of Inhibition (%) of increase of ear thickness values
Test system: oxazolone-induced skin inflammation of Balb/C mouse ears
protocol_text: mouse skin inflammatory model induced by oxazolone (ear thickness)
Assay type: in vivo
condition_label: 20 ul of 0.1% compound topical on ear, 36 hours after oxazolone
Procedure: The compounds of the present invention were evaluated for their effective anti-inflammatory activity using a skin inflammatory animal model of 8 weeks old Balb/C mouse ears induced by oxazolone. […] After 4 days, the thickness of ear was measured using a caliper for the thickness value of ear before the induction of inflammation. […] After 36 hours, the thickness of ear was measured for the increased thickness induced by inflammation. […] The average value was obtained in each group (n=4).
quantity_measured: Inhibition (%) of increase of ear thickness

| compound | observed_value |
| --- | --- |
| Oc1cccc(Nc2ncnc3cc(-c4ccc(CN5CCOCC5)o4)sc23)c1 [LCB 03-0089] | 59 |
| Cl.Oc1cccc(Nc2ncnc3cc(-c4cccc(CCN5CCCC5)c4)sc23)c1 [LCB 03-0076] | 54 |
| Oc1cccc(Nc2ccnc3cc(-c4ccc(CN5CCOCC5)cc4)sc23)c1 [LCB 03-0083] | 47 |
| Oc1cccc(Nc2ccnc3cc(-c4cccc(CN5CCNCC5)c4)sc23)c1 [LCB 03-0111] | 71 |
| CCN(CC)Cc1ccc(-c2cc3ncnc(Nc4cccc(O)c4)c3s2)cc1 [LCB 03-0037] | 33 |
